Tested on: HB3
Experiment Notes: qHTS profiling for inhibitors of Plasmodium falciparum proliferation (AID 504749); further: nearly all actives have a fitted effect of over 60% in size
Measurement Parameters: P. falciparum in erythrocytes, SYBR Green DNA, 72 h; series mostly up to 28.7 µM
Records with an inconclusive call do not appear. Active and inactive are the calls of the source. The call rests on the fitted dose curve; in most records, active means well fitted inhibition curve with a large enough effect; inconclusive means small, poorly fitted or top-dose-only effect; inactive means flat fitted curve, though single readings scatter.
Choose one outcome from this list and give only that: active, inactive

Data request: Give the logged outcome of this assay for the following molecule: CCN(CCO)CCCC(C)Nc1ccnc2cc(Cl)ccc12 (centres undefined)
Data returned: active

Data request: Give the logged outcome of this assay for the following molecule: O=P(O)(O)C(O)(Cn1ccnc1)P(=O)(O)O
Data returned: inactive

Data request: Give the logged outcome of this assay for the following molecule: CCc1nc(N)nc(N)c1-c1ccc(Cl)cc1
Data returned: active

Data request: Give the logged outcome of this assay for the following molecule: Cc1ncc([N+](=O)[O-])n1CC(C)O (centres undefined)
Data returned: inactive

Data request: Give the logged outcome of this assay for the following molecule: CC(C)(S)[C@@H](N)C(=O)O
Data returned: inactive

Data request: Give the logged outcome of this assay for the following molecule: Nc1cc(C(Cl)=C(Cl)Cl)c(S(N)(=O)=O)cc1S(N)(=O)=O
Data returned: inactive

Data request: Give the logged outcome of this assay for the following molecule: C[C@]12CCC(=O)C=C1CC[C@@H]1[C@H]2[C@@H](O)C[C@@]2(C)[C@H]1CC[C@]2(O)C(=O)CO
Data returned: inactive

Data request: Give the logged outcome of this assay for the following molecule: Cc1cc(=O)c2c(O)c3c(O)cc(=O)c4c3c3c(cc(O)c1c23)C(C)(C)C=4O
Data returned: active

Data request: Give the logged outcome of this assay for the following molecule: CC1=C(C)C(=O)C(C(CCCCCC(=O)O)c2ccccc2)=C(C)C1=O (centres undefined)
Data returned: inactive

Data request: Give the logged outcome of this assay for the following molecule: O=C1c2ccccc2-c2n[nH]c3cccc1c23
Data returned: inactive

Data request: Give the logged outcome of this assay for the following molecule: C=CCc1cc(OC)c(O)c(C(=O)NCCO)c1
Data returned: inactive

Data request: Give the logged outcome of this assay for the following molecule: COCCCOc1ccnc(CS(=O)c2nc3ccccc3[nH]2)c1C (centres undefined)
Data returned: inactive

Data request: Give the logged outcome of this assay for the following molecule: c1ccc2[nH]c(-c3cscn3)nc2c1
Data returned: inactive

Data request: Give the logged outcome of this assay for the following molecule: O=c1oc2cc(O)ccc2s1
Data returned: inactive

Data request: Give the logged outcome of this assay for the following molecule: CCCCc1ccc2nc(NC(=O)OC)[nH]c2c1
Data returned: inactive

Data request: Give the logged outcome of this assay for the following molecule: N[C@@H](Cc1cc(I)c(Oc2cc(I)c(O)c(I)c2)c(I)c1)C(=O)O
Data returned: inactive

Data request: Give the logged outcome of this assay for the following molecule: COc1cc(OC)c(C(=O)CCCN2CCCC2)c(OC)c1
Data returned: inactive

Data request: Give the logged outcome of this assay for the following molecule: CN(C)C(=O)COC(=O)Cc1ccc(OC(=O)c2ccc(N=C(N)N)cc2)cc1
Data returned: inactive

Data request: Give the logged outcome of this assay for the following molecule: NNc1nncc2ccccc12
Data returned: active

Data request: Give the logged outcome of this assay for the following molecule: CCCc1cc(=O)[nH]c(=S)[nH]1
Data returned: inactive

Data request: Give the logged outcome of this assay for the following molecule: N=C(N=C(N)N)N1CCOCC1
Data returned: inactive

Data request: Give the logged outcome of this assay for the following molecule: O=C(NCCO[N+](=O)[O-])c1cccnc1
Data returned: inactive

Data request: Give the logged outcome of this assay for the following molecule: Cc1c(OCC(F)(F)F)ccnc1CS(=O)c1nc2ccccc2[nH]1 (centres undefined)
Data returned: inactive

Data request: Give the logged outcome of this assay for the following molecule: Cc1cccc(C)c1OCC(=O)N[C@@H](Cc1ccccc1)[C@@H](O)C[C@H](Cc1ccccc1)NC(=O)[C@H](C(C)C)N1CCCNC1=O
Data returned: active
